Target: T1, TR4DBD (Homo sapiens, UniProt P49116 113-189)
T1 sequence: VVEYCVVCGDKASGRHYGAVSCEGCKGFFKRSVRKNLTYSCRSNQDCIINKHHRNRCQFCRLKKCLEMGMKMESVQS
Assay: MST

binder: 18 bp DR1 (dsDNA) DNA 1: GGCAGAGGTCAAAGGTCA DNA 2: CTGACCTTTGACCTCTGC
Kd: 38.3 µM
